Items are presented alongside their recorded %Inh.
Tested on: MEK1
Construct: gene MAP2K1
Conditions: concentration: 1 μM, replicates: in singlicate; n = 1
Only the number, expressed in %, is required.

[
  {
    "Compound structure string": "C[C@@H]1CCN(C(=O)CO)C[C@@H]1N(C)c1ncnc2[nH]ccc12",
    "Metric name": "%Inh",
    "Observed value": 0
  },
  {
    "Compound structure string": "Cn1ccc2ncnc(Nc3ccc(Oc4cccc(Cl)c4)c(Cl)c3)c21",
    "Metric name": "%Inh",
    "Observed value": 29
  },
  {
    "Compound structure string": "CCc1nc(-c2cccc(N(C)S(=O)(=O)c3ccccc3)c2)c(-c2ccnc(Nc3ccc(N4CCN(C(C)=O)CC4)nc3)n2)s1",
    "Metric name": "%Inh",
    "Observed value": 0
  },
  {
    "Compound structure string": "O=C(NCCCN1CCCC1=O)c1cnc(NCc2cc(Cl)ccc2Cl)nc1NC1CCNCC1",
    "Metric name": "%Inh",
    "Observed value": 0
  },
  {
    "Compound structure string": "Oc1ccc2ncnc(Nc3ccc(OCc4ccccc4)cc3)c2c1",
    "Metric name": "%Inh",
    "Observed value": 18
  }
]

Problem: Which %Inh is reported for this compound? COC(=O)c1c(-c2ccccc2)c2cc(Cl)ccc2c(=O)n1Cc1ccc(S(C)(=O)=O)cc1
Result: 0

Problem: Which %Inh is reported for this compound? CS(=O)(=O)CCNCc1nc(-c2ccc3ncnc(Nc4ccc(OCc5cccc(F)c5)c(Cl)c4)c3c2)cs1.Cl
Result: 0

Problem: Which %Inh is reported for this compound? Cc1ccc(C)c(NC(=O)NCCNc2ccnc(Nc3ccc(F)cc3)n2)c1
Result: 0

* * *

System: DLK
Construct: gene MAP3K12
pKd: −log10 of the molar value.
Metric name: pKd

[
  {
    "Compound": "CSc1nn2c(=O)cc(N3CCOCC3)nc2n1Cc1cccc(Cl)c1Cl [GSK2347225]",
    "pKd": "< 5.00"
  }
]

Next up:
Problem: Which pKd is reported for this compound? Clc1ccc(-c2cc(-c3c[nH]nc3-c3ccccn3)ccn2)cc1 [GW681251]
Result: < 5.00

* * *

Items are presented alongside their recorded %Inh.
Test system: PAK3
Settings: concentration: 1 μM, replicates: in singlicate; n = 1
Only the number, expressed in %, is required.

Example results:
[
  {
    "Compound": "COC(=O)c1cccc(NC(=O)NCCNc2ccnc(Nc3ccc(F)cc3)n2)c1",
    "Measurement target": "PAK3",
    "Observed value": 0
  },
  {
    "Compound": "Cl.c1ccc(Cn2ccc3cc(Nc4ncnc5ccccc45)ccc32)cc1",
    "Measurement target": "PAK3",
    "Observed value": 0
  }
]

Problem: Which %Inh is reported for this compound? Nc1nc(-c2cccnc2)c(-c2ccnc3ccccc23)s1
Result: 20

Problem: Which %Inh is reported for this compound? C[C@H]1CC[C@@H](C(=O)Nc2ccccc2)CN1c1cc(-c2ccc3c(N)n[nH]c3c2)nc(N)n1
Result: 0

Problem: Which %Inh is reported for this compound? COC(=O)c1c(-c2ccccc2)c2cc(Cl)ccc2c(=O)n1Cc1ccc(S(C)(=O)=O)cc1
Result: 0

Problem: Which %Inh is reported for this compound? COc1ccc(NC(=O)Nc2ccc(C)c(-c3ccc(C(=O)Nc4ccncc4)cc3)c2)cc1
Result: 3

Problem: Which %Inh is reported for this compound? Cc1ccc(C)c(NC(=O)NCCNc2ccnc(Nc3ccc(F)cc3)n2)c1
Result: 0

* * *

System: ERK4
Construct: gene MAPK4
Details: concentration: 1 μM, replicates: in singlicate; n = 1
Items are presented alongside their recorded %Inh.
Only the number, expressed in %, is required.

[
  {
    "Compound": "O=C(NCCCN1CCCC1=O)c1cnc(NCc2cc(Cl)ccc2Cl)nc1NC1CCNCC1",
    "%Inh [%]": 0
  }
]

Problem: Which %Inh is reported for this compound? CSc1nn2c(=O)cc(N3CCOCC3)nc2n1Cc1cccc(Cl)c1Cl [GSK2347225]
Result: 21

Problem: Which %Inh is reported for this compound? Cl.Cl.c1ccc(-c2cc3ccncc3cc2OC2CCNCC2)cc1 [GSK1122999]
Result: 8

Problem: Which %Inh is reported for this compound? NC(=O)c1sc(-n2cnc3ccccc32)cc1OCc1ccccc1F [GSK1024306]
Result: 0

Problem: Which %Inh is reported for this compound? CSc1ccc(NC2=C(c3ccccc3Cl)C(=O)NC2=O)cc1 [SB-342411]
Result: 9

Problem: Which %Inh is reported for this compound? Cl.O=S(=O)(c1cccc(F)c1)c1ccc(Nc2ncnc3cc(Br)sc23)cc1Cl [GSK306886]
Result: 44

Problem: Which %Inh is reported for this compound? OCCOCCn1ccc2ncnc(Nc3ccc(Oc4cccc(Cl)c4)c(Cl)c3)c21
Result: 0

Problem: Which %Inh is reported for this compound? Fc1cccc(COc2ccc(Nc3ncnc4sc(-c5ccc[nH]5)cc34)cc2Cl)c1 [GW707818]
Result: 51

Problem: Which %Inh is reported for this compound? COc1ccc(NC(=O)c2ccc(-c3cc(-c4nnc(C)o4)ccc3C)cc2)cc1 [GW595885]
Result: 0

* * *

Test system: AKT2
Settings: concentration: 1 μM, replicates: in singlicate; n = 1
Items are presented alongside their recorded %Inh.
Only the number, expressed in %, is required.

Example results:
[
  {
    "Compound structure string": "COc1ccc(NC(=O)c2ccc(-c3cc(-c4nnc(C)o4)ccc3C)cc2)cc1",
    "Unit spec": "%",
    "%Inh": 0
  },
  {
    "Compound structure string": "O=C(c1ccc(-c2cc(-c3c[nH]nc3-c3ccccn3)ccn2)cc1)N1CCCC1",
    "Unit spec": "%",
    "%Inh": 0
  },
  {
    "Compound structure string": "Cn1ccc2ncnc(Nc3ccc(Oc4cccc(Cl)c4)c(Cl)c3)c21",
    "Unit spec": "%",
    "%Inh": 7
  },
  {
    "Compound structure string": "Nc1n[nH]c2nnc(-c3ccccc3)cc12",
    "Unit spec": "%",
    "%Inh": 13
  },
  {
    "Compound structure string": "C[C@H]1CC[C@@H](C(=O)Nc2ccccc2)CN1c1cc(-c2ccc3c(N)n[nH]c3c2)nc(N)n1",
    "Unit spec": "%",
    "%Inh": 6
  }
]

Problem: // map Nc1nccc2scc(-c3ccc4c(c3)CCN4C(=O)Cc3cc(F)ccc3F)c12 to recorded %Inh (system: AKT2)
Result: 17

Problem: // map CS(=O)(=O)CCNCc1nc(-c2ccc3ncnc(Nc4ccc(OCc5cccc(F)c5)c(Cl)c4)c3c2)cs1.Cl to recorded %Inh (system: AKT2)
Result: 0

Problem: // map CNc1nccc(-c2c(-c3ccc(F)cc3)ncn2C2CCN(C)CC2)n1 to recorded %Inh (system: AKT2)
Result: 2

* * *

Test system: NLK
Metric name: Kd (nM)
Only the number, expressed in nM, is required.

Problem: // map CNc1nccc(-c2c(-c3ccc(F)cc3)ncn2C2CCN(C)CC2)n1 [SB-222903] to recorded Kd (system: NLK)
Result: 130

* * *

System: SNRK
Conditions: concentration: 1 μM, replicates: in singlicate; n = 1
Metric name: %Inh (%)
Only the number, expressed in %, is required.

[
  {
    "Compound": "CC(C)(C)OC(=O)NC1CCCN(c2cc(-c3ccc4c(N)n[nH]c4c3)nc(N)n2)C1 (centres unmarked) [GSK2286096]",
    "Unit spec": "%",
    "Observed value": 3
  },
  {
    "Compound": "FC(F)(F)c1cc(Nc2nccc(-c3c(-c4ccc(Cl)cc4)nn4ncccc34)n2)ccc1Cl [GW829351]",
    "Unit spec": "%",
    "Observed value": 0
  }
]

Problem: Which %Inh is reported for this compound? Clc1ccc(-c2cc(-c3c[nH]nc3-c3ccccn3)ccn2)cc1 [GW681251]
Result: 0

Problem: Which %Inh is reported for this compound? Nc1nccc2scc(-c3ccc4c(c3)CCN4C(=O)Cc3cc(F)ccc3F)c12 [GSK2587663]
Result: 8

Problem: Which %Inh is reported for this compound? CCc1nc(-c2cccc(N(C)S(=O)(=O)c3ccccc3)c2)c(-c2ccnc(Nc3ccc(N4CCN(C(C)=O)CC4)nc3)n2)s1 [GSK1645895]
Result: 0

Problem: Which %Inh is reported for this compound? Cl.c1ccc(Cn2ccc3cc(Nc4ncnc5ccccc45)ccc32)cc1 [GW275568]
Result: 14

Problem: Which %Inh is reported for this compound? OCCOCCn1ccc2ncnc(Nc3ccc(Oc4cccc(Cl)c4)c(Cl)c3)c21
Result: 0

Problem: Which %Inh is reported for this compound? CC(C)(C)c1ccc(-n2cnc3c(N)ncnc32)cc1 [SKF-97263]
Result: 0

This collection of values is drawn from paper PMC5540273.
